Biological target: carboxypeptidase Y (CPD-Y) variant N51Q (Asn51 replaced with glutamine) (Saccharomyces cerevisiae, UniProt P00729, N162Q)
Construct: made in house; host or cells: S. cerevisiae W2579 (secreted)
Sequence (P00729 112-532 N162Q): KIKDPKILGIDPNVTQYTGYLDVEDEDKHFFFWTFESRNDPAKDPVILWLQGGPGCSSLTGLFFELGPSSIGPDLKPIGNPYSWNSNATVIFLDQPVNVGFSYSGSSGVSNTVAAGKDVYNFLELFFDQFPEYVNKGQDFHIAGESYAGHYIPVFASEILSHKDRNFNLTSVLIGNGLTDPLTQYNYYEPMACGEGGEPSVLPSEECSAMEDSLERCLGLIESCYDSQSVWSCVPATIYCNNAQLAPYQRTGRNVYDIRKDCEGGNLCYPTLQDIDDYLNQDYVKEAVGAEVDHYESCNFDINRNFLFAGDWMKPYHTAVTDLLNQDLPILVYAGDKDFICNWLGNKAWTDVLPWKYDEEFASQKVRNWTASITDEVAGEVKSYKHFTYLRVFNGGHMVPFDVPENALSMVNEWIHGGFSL
Experiment: Aminolysis; KN(app) of nucleophile
Format: biochemical, yeast
Details: Table V; amino acid nucleophile, FA-Ala-OBzl as substrate, pH 7.5
Experimental Readout: Kn,app
I'd appreciate it if you included the unit after the number.

Past entries and their recorded results:
Substance Smiles | Recorded Measurement
C[C@H](N)C(=O)O | 250 ± 15 mM
CC(C)C[C@H](N)C(=O)O | 42 ± 1 mM
CC(C)[C@H](N)C(=O)O | 61 ± 2 mM

Please look at the following compound next.
Return reported Kn,app; argument: `N[C@@H](Cc1ccccc1)C(=O)O`
29 ± 1 mM

###

Target: carboxypeptidase Y (CPD-Y) variant E65A (Glu65 replaced by alanine) (Saccharomyces cerevisiae, UniProt P00729, E176A)
Construct: made in house; host or cells: S. cerevisiae W2579 (secreted)
Sequence (P00729 112-532 E176A): as the sequence (P00729 112-532 N162Q) above, with Q51N, E65A counted along it
Experiment: Aminolysis; KN(app) of nucleophile
Type: biochemical, yeast
Details: Table VI; substance of the line is the substrate (leaving group varied), pH 7.5
This listing pairs compounds with measured Kn,app (H-Val-NH2 as nucleophile).

Please review the entries below; each comes with its answer.
Substance Smiles | Kn,app (H-Val-NH2 as nucleophile)
CC(C)[C@H](NC(=O)[C@H](C)NC(=O)C=Cc1ccco1)C(=O)O | 5.7 ± 0.3 mM
C[C@H](NC(=O)[C@H](C)NC(=O)C=Cc1ccco1)C(=O)O | 5.2 ± 0.5 mM
C[C@H](NC(=O)C=Cc1ccco1)C(=O)OCc1ccccc1 | 4.2 ± 0.01 mM

Which Kn,app (H-Val-NH2 as nucleophile) is listed for `C[C@H](NC(=O)C=Cc1ccco1)C(=O)N[C@@H](Cc1ccccc1)C(=O)O` ?
4.7 ± 0.1 mM

Which Kn,app (H-Val-NH2 as nucleophile) reading was recorded for the compound `CC(C)C[C@H](NC(=O)[C@H](C)NC(=O)C=Cc1ccco1)C(=O)O` ?
5.2 ± 0.1 mM

###

Target: carboxypeptidase Y (CPD-Y) variant E145A (Glu145 replaced by alanine) (Saccharomyces cerevisiae, UniProt P00729, E256A)
Construct: made in house; host or cells: S. cerevisiae W2579 (secreted)
Sequence (P00729 112-532 E256A): as the sequence (P00729 112-532 N162Q) above, with Q51N, E145A counted along it
Assay: Aminolysis; KN(app) of nucleophile
Format: biochemical, yeast
Settings: Table VI; substance of the line is the substrate (leaving group varied), pH 7.5
The following molecules are shown together with reported Kn,app (H-Val-NH2 as nucleophile) values.
Give a bare numeral; the unit mM is implied.

Look over these answered cases.
Molecule | Recorded Measurement
CC(C)C[C@H](NC(=O)[C@H](C)NC(=O)C=Cc1ccco1)C(=O)O [FA--Ala--Leu--OH, FA-Ala-Leu-OH] | 4.1
CC(C)[C@H](NC(=O)[C@H](C)NC(=O)C=Cc1ccco1)C(=O)O [FA--Ala--Val--OH, FA-Ala-Val-OH] | 4.2
C[C@H](NC(=O)C=Cc1ccco1)C(=O)N[C@@H](Cc1ccccc1)C(=O)O [FA--Ala--Phe--OH, FA-Ala-Phe-OH] | 4.1

Could you now consider this next molecule?
Query: Kn,app (H-Val-NH2 as nucleophile); subject: C[C@H](NC(=O)C=Cc1ccco1)C(=O)OCc1ccccc1 [FA--Ala--OBzl, FA-Ala-OBzl]
3.4
